# experimental system: T1, CTNI quality control recombinant protein (PK2-CTNI-1, 170120, produced by the applicant) (human, UniProt P19429 2-210, limits assumed)
# T1 construct: also called cardiac troponin I
# T1 sequence (P19429 2-210 limits assumed): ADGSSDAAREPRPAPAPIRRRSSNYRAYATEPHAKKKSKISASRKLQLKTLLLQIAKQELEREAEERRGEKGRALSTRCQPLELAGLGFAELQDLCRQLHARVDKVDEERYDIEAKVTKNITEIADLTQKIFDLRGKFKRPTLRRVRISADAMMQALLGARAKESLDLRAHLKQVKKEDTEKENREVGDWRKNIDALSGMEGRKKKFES
# test summary: indirect ELISA, cTnI coated 1 ug/ml, antibody 0 ug/ml (blank)
Labelling field: enter rule met if recorded OD 450 nm (reference 630 nm) is less than 0.04 OD. Enter rule not met if it equals or exceeds that cut-off.

Use these answered entries as a reference point.
{"columns": ["binder", "category label"],
 "data": [
  ["Mutation 4 (antibody, V domains shown, built as for Mutation 1) VH: EVQLQQSGAELVKPGASVKLSCTASGFNLKDYFMHWMKQRTEQGLDWIGRIEPEDAETRYAPEFQGKATITADTSSNTAYLQLSTLTSEDTAVYYCARYYSSYIPFVYWGQGTLVTASA VL: DVVMTQTPLSLSVSLGDQASISCRSSQSIIYSNKHTYLHWYLQKPGQSPKLLIFQISNRFSGVPDRFSGSGSGTDFTLKINRVEAEDLGVYFCSNSTHLPFTFGSGTKLEIKR", "rule met"],
  ["Mutation 5 (antibody, V domains shown, built as for Mutation 1) VH: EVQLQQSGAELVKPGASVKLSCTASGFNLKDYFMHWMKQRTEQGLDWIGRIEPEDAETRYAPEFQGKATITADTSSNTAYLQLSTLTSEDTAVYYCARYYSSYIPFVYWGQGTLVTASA VL: DVVMTQTPLSLSVSLGDQASISCRSSQSIIYSNKHTYLHWYLQKPGQSPKLLIFQISQRFSGVPDRFSGSGSGTDFTLKINRVEAEDLGVYFCSNSTHLPFTFGSGTKLEIKR", "rule not met"],
  ["Mutation 3 (antibody, V domains shown, built as for Mutation 1) VH: EVQLQQSGAELVKPGASVKLSCTASGFNLKEYFMHWMKQRTEQGLDWIGRIDPEDAETRYAPEFQGKATITADTSSNTAYLQLSTLTSEDTAVYYCARYYTSYIPFVYWGQGTLVTASA VL: DVVMTQTPLSLSVSLGDQASISCRSSQSIIYSNRHTYLHWYLQKPGQSPKLLIFQISQRFSGVPDRFSGSGSGTDFTLKINRVEAEDLGVYFCSQSTHLPFTFGSGTKLEIKR", "rule met"]
]}

Kindly consider the entry below.
input: Take the binder Mutation 1 (antibody, V domains shown, No residue numbers are printed, so each chain is built as FR1-CDR1-FR2-CDR2-FR3-CDR3-FR4-constant) VH: EVQLQQSGAELVKPGASVKLSCTASGFNLKDYFMHWMKQRTEQGLDWIGRIDPEDAETRYAPEFQGKATITADTSSNTAYLQLSTLTSEDTAVYYCARYYSSYIPFVYWGQGTLVTASA VL: DVVMTQTPLSLSVSLGDQASISCRSSQSIIYSNRHTYLHWYLQKPGQSPKLLIFQISNRFSGVPDRFSGSGSGTDFTLKINRVEAEDLGVYFCSQSTHLPFTFGSGTKLEIKR and say whether its OD 450 nm (reference 630 nm) is less than 0.04 OD.
output: rule met

Measured values drawn from patent US20210340231A1 for this set.
